Here, each record is paired with measured protein stability index data.
B1: SNAP91 (parent)
chain: FATASAAVPVSTSKPSSDLLDLQP

Variants of: B1
Test Protocol: protein stability index of a GFP-peptide fusion (GPS, HEK-293T) (PSI 1-6); higher = more stable;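 further: lentivirally expressed fusions sorted by FACS into six bins by GFP to DsRed ratio, PSI derived from sequencing read proportions per bin multiplied by bin number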
Experimental Context: c terminus: a fixed tail appended
Just the number, please, no unit after it.

Worked cases, answers included:
Please fill in: protein stability index reported for `D18F` = 2.23

Please fill in: protein stability index reported for `A2Y` = 3.77

Please fill in: protein stability index reported for `P9V` = 2.24

Please fill in: protein stability index reported for `P24I` = 3.3

Please fill in: protein stability index reported for `S5I` = 2.8

Please fill in: protein stability index reported for `L19K` = 3.79

Please fill in: protein stability index reported for `S13Q` = 3.8

Please fill in: protein stability index reported for `Q23T` = 3.96

More entries:
Please fill in: protein stability index reported for `T12K` = 3.61

Please fill in: protein stability index reported for `L22C` = 3.84

Please fill in: protein stability index reported for `V10D` = 4.18
